Cited source: the Human Domainome abundance scans (Beltran et al. 2025)

I'd be grateful if you could share measured abundance fitness for these entries.
B1: Gamma-crystallin S, residues 96 to 176; numbered along this chain, P22914 (parent)
chain: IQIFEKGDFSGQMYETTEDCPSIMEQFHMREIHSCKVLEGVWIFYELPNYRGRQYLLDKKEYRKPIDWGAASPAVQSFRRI

# Variants of: B1
# test-summary: abundance fitness (aPCA) (normalised: wild type 0, dead -1); higher = more abundant; growth selection in yeast, the domain comes from the species named
# condition-label: Homo sapiens

Below are worked cases with known answers.
variant-label: Q12H
abundance fitness: -0.04
//
variant-label: G40A
abundance fitness: -0.051
//
variant-label: A74T
abundance fitness: -0.159
//
variant-label: R30G
abundance fitness: 0
//
variant-label: V37N
abundance fitness: 0.087

For every item in the list below, what is its measured abundance fitness?
1. F27A
2. K6Y
3. Y55E

*A*
[0.033, -0.033, -0.425]

For every item in the list below, what is its measured abundance fitness?
1. H33I
2. L56M

*A*
[-0.002, -0.228]
